# Subject of test: T1, EBV peptide on HLA-B*35:01 (human)
# T1 peptide: HPVGEADYFEY
# Procedure summary: data from [104]; method not given; soluble, other
Parameter measured: Kd

IN: Which Kd reading was recorded for the binder TK3 (TCR) alpha TRAV20*01 CDR3: AVQDLGTSGSRLT beta TRBV9*01 CDR3: ASSARSGELF ?
OUT: 2200 nM
